Where these numbers come from: ChEMBL document CHEMBL3745670

System: Micrococcus luteus
Experiment: Antibiofilm activity against Micrococcus luteus MTCC 2470 after 24 hrs by crystal violet staining based method
Assay type: functional, organism-based
Conditions: MTCC 2470, 24 h
MEASURED_ENDPOINT: IC50 (µM)

1. CCCCCCCCC(CCCCCCCCC(=O)OC)SCC(=O)NCC(=O)OC (stereo not given) | 8.2
2. O=C(O)c1cn(C2CC2)c2cc(N3CCNCC3)c(F)cc2c1=O [CIPROFLOXACIN] | 0.5
3. CCCCCCCCC(CCCCCCCCC(=O)OC)SCC(=O)N[C@H](C(=O)OC)c1c[nH]cn1 (stereo not given in full) | 2.1

a = CCCCCCCCC(CCCCCCCCC(=O)OC)SCC(=O)N[C@@H](C)C(=O)OC (stereo not given in full)
b = CCCCCCCCC(CCCCCCCCC(=O)OC)SCC(=O)N[C@H](C(=O)OC)[C@@H](C)CC (stereo not given in full)
-- ask In the pair a and b , the larger recorded IC50 belongs to which? Pick one and reply with its label.
-- reply b
(b: 16.8 µM, a: 4.1 µM)

====

System: MDA-MB-231
Test: Cytotoxicity against human MDA-MB-231 cells by MTT assay
Format: functional, cell-based
# IC50 values compiled below
Give a bare numeral; the unit µM is implied.

Answered examples (5):
1. CCCCCCCCC(CCCCCCCCC(=O)OC)SCC(=O)N[C@@H](C)C(=O)OC (stereo partly specified) | 98.7
2. CCCCCCCCC(CCCCCCCCC(=O)OC)SCC(=O)N[C@@H](CC(C)C)C(=O)OC (stereo partly specified) | 152
3. COc1cccc2c1C(=O)c1c(O)c3c(c(O)c1C2=O)C[C@@](O)(C(=O)CO)C[C@@H]3O[C@H]1C[C@H](N)[C@H](O)[C@H](C)O1 [DOXORUBICIN] | 0.7
4. CCCCCCCCC(CCCCCCCCC(=O)OC)SCC(=O)NCC(=O)OC (stereo unspecified) | 31.4
5. CCCCCCCCC(CCCCCCCCC(=O)OC)SCC(=O)N[C@@H](Cc1ccccc1)C(=O)OC (stereo partly specified) | 38.6

Next up:
-- ask For the compound CCCCCCCCC(CCCCCCCCC(=O)OC)SCC(=O)N[C@H](C(=O)OC)[C@@H](C)CC (stereo partly specified) , give its measured IC50 value.
-- reply 22.4

====

Tested on: Staphylococcus aureus
Assay: Antibiofilm activity against Staphylococcus aureus MTCC 96 after 24 hrs by crystal violet staining based method
Format: functional, organism-based
Conditions: MTCC 96, 24 h
MEASURED_ENDPOINT: IC50 (µM)

P = CCCCCCCCC(CCCCCCCCC(=O)OC)SCC(=O)N[C@H](C(=O)OC)[C@@H](C)CC (some centres not stated)
Q = CCCCCCCCC(CCCCCCCCC(=O)OC)SCC(=O)N[C@@H](C)C(=O)OC (some centres not stated)
-- ask Of P and Q , whose reported IC50 is numerically smaller? Pick one and reply with its label.
-- reply Q
(Q: 9.3 µM, P: 21.5 µM)

====

Tested on: Bacillus subtilis
Experiment: Antibiofilm activity against Bacillus subtilis MTCC 121 after 24 hrs by well diffusion assay by crystal violet staining based method
Type: functional, organism-based
Conditions: MTCC 121, 24 h
pIC50: −log10 of the molar value.
MEASURED_ENDPOINT: pIC50

1. O=C(O)c1cn(C2CC2)c2cc(N3CCNCC3)c(F)cc2c1=O [CIPROFLOXACIN] | 6.30
2. CCCCCCCCC(CCCCCCCCC(=O)OC)SCC(=O)N[C@H](C(=O)OC)c1c[nH]cn1 (some centres undefined) | 5.72
3. CCCCCCCCC(CCCCCCCCC(=O)OC)SCC(=O)NCC(=O)OC (centres undefined) | 5.36
4. CCCCCCCCC(CCCCCCCCC(=O)OC)SCC(=O)N[C@@H](C)C(=O)OC (some centres undefined) | 5.55
